targetSystem: αvβ6 (Homo sapiens, UniProt P06756+P18564)
Sequence (P06756 31-992 limits assumed): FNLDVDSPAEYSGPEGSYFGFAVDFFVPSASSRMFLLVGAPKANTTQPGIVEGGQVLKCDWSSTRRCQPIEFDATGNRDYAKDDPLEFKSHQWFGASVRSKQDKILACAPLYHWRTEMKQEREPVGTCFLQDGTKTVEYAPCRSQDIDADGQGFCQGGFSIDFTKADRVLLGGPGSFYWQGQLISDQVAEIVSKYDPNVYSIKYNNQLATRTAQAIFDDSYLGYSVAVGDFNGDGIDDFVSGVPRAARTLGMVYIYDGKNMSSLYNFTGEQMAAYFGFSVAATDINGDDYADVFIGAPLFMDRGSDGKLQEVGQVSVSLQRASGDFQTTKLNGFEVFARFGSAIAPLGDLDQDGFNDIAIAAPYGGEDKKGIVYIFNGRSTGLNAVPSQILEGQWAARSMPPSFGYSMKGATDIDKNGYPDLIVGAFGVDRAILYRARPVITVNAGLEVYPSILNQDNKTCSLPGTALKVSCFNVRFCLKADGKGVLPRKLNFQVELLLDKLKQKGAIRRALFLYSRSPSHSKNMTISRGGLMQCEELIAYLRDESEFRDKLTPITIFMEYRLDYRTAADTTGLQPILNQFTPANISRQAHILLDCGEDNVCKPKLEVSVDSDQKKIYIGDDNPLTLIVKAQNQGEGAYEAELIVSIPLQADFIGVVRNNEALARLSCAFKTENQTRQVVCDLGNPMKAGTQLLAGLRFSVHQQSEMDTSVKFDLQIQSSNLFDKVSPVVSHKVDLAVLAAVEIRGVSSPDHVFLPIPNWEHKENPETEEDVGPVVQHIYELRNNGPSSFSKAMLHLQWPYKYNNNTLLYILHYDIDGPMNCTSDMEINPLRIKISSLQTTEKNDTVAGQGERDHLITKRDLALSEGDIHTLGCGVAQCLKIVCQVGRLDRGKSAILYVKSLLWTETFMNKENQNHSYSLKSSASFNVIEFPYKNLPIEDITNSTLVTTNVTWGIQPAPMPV
Sequence (P18564 22-707 limits assumed): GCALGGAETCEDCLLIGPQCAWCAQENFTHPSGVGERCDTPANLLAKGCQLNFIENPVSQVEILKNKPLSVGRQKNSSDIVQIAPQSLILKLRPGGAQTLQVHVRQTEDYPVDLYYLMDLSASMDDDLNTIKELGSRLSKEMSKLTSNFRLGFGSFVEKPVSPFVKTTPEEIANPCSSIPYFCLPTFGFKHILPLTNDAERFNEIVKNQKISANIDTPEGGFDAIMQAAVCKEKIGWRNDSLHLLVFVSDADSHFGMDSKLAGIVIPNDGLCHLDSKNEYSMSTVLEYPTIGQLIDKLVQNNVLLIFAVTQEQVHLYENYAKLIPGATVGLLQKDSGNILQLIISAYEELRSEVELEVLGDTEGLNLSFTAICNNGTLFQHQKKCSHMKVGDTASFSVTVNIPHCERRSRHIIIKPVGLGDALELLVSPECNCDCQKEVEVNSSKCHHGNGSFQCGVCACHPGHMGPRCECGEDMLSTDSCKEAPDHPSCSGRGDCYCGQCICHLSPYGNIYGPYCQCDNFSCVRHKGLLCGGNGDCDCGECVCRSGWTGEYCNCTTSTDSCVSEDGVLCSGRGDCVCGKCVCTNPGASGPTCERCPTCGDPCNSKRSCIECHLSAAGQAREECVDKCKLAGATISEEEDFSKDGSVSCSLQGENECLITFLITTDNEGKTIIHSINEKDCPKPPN
protocolText: Solid Phase Integrin αvβ6 Assay
pIC50: −log10 of the molar value. Counter-ions that a name gives are not always drawn.
Measured pIC50 values are reported for all entries that follow.

Past entries and their recorded results:
compound: O=C(NC[C@@H](C(=O)O)c1cccc(C2CC2)c1)[C@@H]1CCCN(CCCc2ccc3c(n2)NCCC3)C1 [Compound 258-B]
pIC50: > 7.00
//
compound: C[C@H]1CCN(CCCc2ccc3c(n2)NCCC3)C[C@H]1C(=O)N[C@@H](CC(=O)O)c1ccccc1 [Compound 378]
pIC50: 6.00 to 7.00
//
compound: O=C(NC[C@@H](C(=O)O)c1ccc(F)c(-c2ccccc2)c1F)[C@@H]1CCCN(CCCc2ccc3c(n2)NCCC3)C1 [Compound 626]
pIC50: > 7.00
//
compound: O=C(NC[C@@H](C(=O)O)c1cccc2cnn([C@H]3CCOC3)c12)[C@@H]1CCCN(CCCc2ccc3c(n2)NCCC3)C1 [Compound 320]
pIC50: < 6.00
//
compound: O=C(O)CC(CC(=O)N[C@H]1CCN(C(=O)CCCc2ccc3c(n2)NCCC3)C1)c1ccccc1 (stereo partly drawn) [Compound 520]
pIC50: 6.00 to 7.00

What does the record list as pIC50 for O=C(CC[C@@H](C(=O)O)c1ccccc1)N[C@@H]1CCN(CCCCc2ccc3c(n2)NCCC3)C1 [Compound 421] ?
< 6.00

What does the record list as pIC50 for O=C(O)C[C@H](CO[C@@H]1CCCN(CCCc2ccc3c(n2)NCCC3)C1)c1cccc(-c2ccccc2)c1 [Compound 456] ?
> 7.00

What does the record list as pIC50 for O=C(O)C[C@H](NC(=O)[C@@H]1CCCN(CCCc2ccc3c(n2)NCCC3)C1)c1ccc2nccnc2c1 [Compound 215-A] ?
> 7.00

What does the record list as pIC50 for CC1(C)CN(c2cccc([C@H](CC(=O)O)NC(=O)[C@@H]3CCCN(CCCc4ccc5c(n4)NCCC5)C3)c2)CC(C)(C)O1 [Compound 242] ?
> 7.00

What does the record list as pIC50 for O=C(O)C[C@H](NC(=O)[C@@H]1CCCN(CCCCc2ccc3c(n2)NCCC3)C1)c1ccccc1 [Compound 288, hydrochloride] ?
> 7.00

What does the record list as pIC50 for O=C(O)[C@H](CCO[C@@H]1CCCN(CCc2ccc3c(n2)NCCC3)C1)NC(=O)C12CCC(CC1)CC2 [Compound 398] ?
> 7.00

What does the record list as pIC50 for CC1(C)CN(c2cc([C@H](CO[C@@H]3CCCN(CCCc4ccc5c(n4)NCCC5)C3)CC(=O)O)ccc2F)CCO1 [Compound 580] ?
> 7.00

What does the record list as pIC50 for Cc1cc(C(F)(F)F)nn1-c1cccc([C@@H](CO[C@@H]2CCCN(CCCc3ccc4c(n3)NCCC4)C2)CC(=O)O)c1 [Compound 576] ?
> 7.00

What does the record list as pIC50 for O=C(CC[C@@H](C(=O)O)c1ccccc1)N[C@H]1CCN(CCCCc2ccc3c(n2)NCCC3)C1 [Compound 425] ?
< 6.00

What does the record list as pIC50 for O=C(O)[C@H](c1ccccc1)[C@H](O)CO[C@@H]1CCCN(CCCc2ccc3c(n2)NCCC3)C1 [Compound 611] ?
< 6.00

What does the record list as pIC50 for O=C(O)[C@@H](CO[C@@H]1CCCN(CCCc2ccc3c(n2)NCCC3)C1)NC(=O)C12CCC(CC1)CC2 [Compound 382] ?
< 6.00

What does the record list as pIC50 for O=C(O)C[C@H](NC(=O)[C@H]1CN(CCCc2ccc3c(n2)NCCC3)CC(F)(F)C1)c1ccccc1 [Compound 291-B] ?
6.00 to 7.00

What does the record list as pIC50 for O=C(O)C[C@H](NC(=O)[C@@H]1CCCN(CCCc2ccc3c(n2)NCCC3)C1)c1cccc([C@@H]2CCOC2)c1 [Compound 533] ?
> 7.00

What does the record list as pIC50 for CC1(CN[C@@H](CNC(=O)[C@@H]2CCCN(CCCc3ccc4c(n3)NCCC4)C2)C(=O)O)CCCCC1 [Compound 269] ?
6.00 to 7.00

What does the record list as pIC50 for O=C(O)C[C@H](CO[C@@H]1CCCN(CCCc2ccc3c(n2)NCCC3)C1)c1cccc(N2C[C@H]3CC[C@@H]2CO3)c1 [Compound 463] ?
6.00 to 7.00

What does the record list as pIC50 for CC1(C)CN(c2cccc([C@H](CC(=O)O)NC(=O)[C@@H]3CCCN(CCCc4ccc5c(n4)NCCC5)C3)c2)CCO1 [Compound 234] ?
> 7.00

====

targetSystem: αvβ6 (Homo sapiens, UniProt P06756+P18564)
protocolText: Solid Phase Integrin αvβ6 Assay
Measured IC50 values are reported for all entries that follow.

Past entries and their recorded results:
compound: O=C(NC[C@H](Nc1ncnc2ccccc12)C(=O)O)[C@@H]1CCCN(CCCc2ccc3c(n2)NCCC3)C1 [Compound 271]
IC50: < 100 nM
--
compound: O=C(NC[C@@H](C(=O)O)c1cccc2c1cnn2CC1CC1)[C@@H]1CCCN(CCCc2ccc3c(n2)NCCC3)C1 [Compound 314]
IC50: 100 to 1000 nM
--
compound: O=C(O)C[C@@H](NC(=O)[C@@H]1CCCN(CCCc2ccc3c(n2)NCCC3)C1)c1ccccc1C1CC1 [Compound 345]
IC50: > 1000 nM

// moving on: another record for IC50
What does the record list as IC50 for C[C@@H]1CN(c2cccc([C@H](CC(=O)O)NC(=O)[C@@H]3CCCN(CCCc4ccc5c(n4)NCCC5)C3)c2)C[C@H](C)O1 [Compound 236] ?
< 100 nM

====

targetSystem: αvβ6 (Homo sapiens, UniProt P06756+P18564)
protocolText: Solid Phase Integrin αvβ6 Assay
pIC50: −log10 of the molar value. Structures can show the parent of a compound that is named as a salt.
Measured pIC50 values are reported for all entries that follow.

Past entries and their recorded results:
compound: Cc1ccn(-c2cccc([C@H](CC(=O)O)NC(=O)[C@@H]3CCCN(CCCc4ccc5c(n4)NCCC5)C3)c2)n1
targetSystem: αvβ6 (Homo sapiens, UniProt P06756+P18564)
pIC50: > 7.00

compound: O=C(NC[C@@H](C(=O)O)c1cccc2cnn([C@@H]3CCOC3)c12)[C@@H]1CCCN(CCCc2ccc3c(n2)NCCC3)C1
targetSystem: αvβ6 (Homo sapiens, UniProt P06756+P18564)
pIC50: < 6.00

compound: O=C(O)C[C@H](NC(=O)[C@@H]1CCCN(CCCc2ccc3c(n2)NCCC3)C1)c1cccc2c1CCC2
targetSystem: αvβ6 (Homo sapiens, UniProt P06756+P18564)
pIC50: > 7.00

compound: O=C(NC[C@@H](C(=O)O)c1cncc(-c2ccccc2)c1)[C@@H]1CCCN(CCCc2ccc3c(n2)NCCC3)C1
targetSystem: αvβ6 (Homo sapiens, UniProt P06756+P18564)
pIC50: > 7.00

I'm curious: which pIC50 was measured for Cc1csc2ncnc(N[C@@H](CNC(=O)[C@@H]3CCCN(CCCc4ccc5c(n4)NCCC5)C3)C(=O)O)c12 tested on αvβ6 (Homo sapiens, UniProt P06756+P18564)?
> 7.00

I'm curious: which pIC50 was measured for O=C(O)C[C@H](NC(=O)[C@@H]1CCCN(CCCc2ccc3c(n2)NCCC3)C1)c1cccc(C2CC2)c1F tested on αvβ6 (Homo sapiens, UniProt P06756+P18564)?
6.00 to 7.00

I'm curious: which pIC50 was measured for O=C(O)C[C@H](NC(=O)[C@@H]1CCCN(CCCc2ccc3c(n2)NCCC3)C1)c1cccc(N2CCOCC2)c1 [Compound 229, hydrochloride] tested on αvβ6 (Homo sapiens, UniProt P06756+P18564)?
> 7.00

====

targetSystem: αvβ6 (Homo sapiens, UniProt P06756+P18564)
protocolText: Solid Phase Integrin αvβ6 Assay
pIC50: −log10 of the molar value.
propertyMeasured: pIC50

Past entries and their recorded results:
compound: O=C(NC[C@@H](C(=O)O)c1cccc2nn(CC3CC3)cc12)[C@@H]1CCCN(CCCc2ccc3c(n2)NCCC3)C1 [Compound 316]
result: < 6.00
--
compound: O=C(O)C[C@H](NC[C@@H]1CCCN(CCCc2ccc3c(n2)NCCC3)C1)c1cccc(Br)c1 [Compound 531]
result: < 6.00
--
compound: O=C(NC[C@@H](C(=O)O)c1cccc2cn([C@H]3CCC(F)(F)C3)nc12)[C@@H]1CCCN(CCCc2ccc3c(n2)NCCC3)C1 [Compound 624]
result: < 6.00
--
compound: O=C(N[C@H](CCO[C@@H]1CCCN(CCCc2ccc3c(n2)NCCC3)C1)C(=O)O)c1c(F)cc(N2CCOC[C@@H]2C(F)(F)F)cc1F [Compound 494]
result: < 6.00
--
compound: O=C(O)C[C@@H](CC(=O)N[C@H]1CCN(C(=O)CCCc2ccc3c(n2)NCCC3)C1)c1ccccc1 [Compound 521]
result: 6.00 to 7.00
--
compound: O=C(O)C[C@H](CO[C@@H]1CCCN(CCCc2ccc3c(n2)NCCC3)C1)c1ccnc(C2CC2)c1 [Compound 490]
result: > 7.00
--
compound: O=C(O)C[C@H](NC(=O)[C@@H]1CCCN(CCCc2ccc3c(n2)NCCC3)C1)c1cccc2c1CCCO2 [Compound 216-A]
result: > 7.00
--
compound: O=C(O)C[C@H](CO[C@@H]1CCCN(CCCc2ccc3c(n2)NCCC3)C1)c1cccc(N2CCCC2=O)c1 [Compound 482]
result: > 7.00

// moving on: another record for pIC50
What does the record list as pIC50 for O=C(NC[C@@H](C(=O)O)c1ccccc1-c1ccccc1)[C@@H]1CCCN(CCCc2ccc3c(n2)NCCC3)C1 [Compound 340] ?
6.00 to 7.00
